Test system: CAG foci in primary DM1 patient myoblasts
Assay: Single-cut screening: CAG foci staining
Type: cell-based, human
Details: single sgRNA, DNA-PKi treated
Recorded metric: % of CAG foci positive nuclei (DNA-PKi)

Some entries whose results are on file:
{"columns": ["Substance", "Tested on", "% of CAG foci positive nuclei (DNA-PKi)"],
 "data": [
  ["CCACGCTCGGAGCGGTTGTGAA (guide RNA; chemistry not fully specified) [SluU24]", "CAG foci in primary DM1 patient myoblasts", "1.56%"],
  ["TGGGCGGAGACCCACGCTCGGA (guide RNA; chemistry not fully specified) [SluU25]", "CAG foci in primary DM1 patient myoblasts", "1.29%"],
  ["GCCCGGATCACAGGACTGGAGC (guide RNA; chemistry not fully specified) [SluU30]", "CAG foci in primary DM1 patient myoblasts", "2.14%"]
]}

Query block: Supply measured % of CAG foci positive nuclei (DNA-PKi) of CCGCCGAAGCGGGCGGAGCCGG (guide RNA; chemistry not fully specified) [SluD59] in your reply.
Result block: 1.29%

Query block: Supply measured % of CAG foci positive nuclei (DNA-PKi) of CCAAAACGTGGATTGGGGTTGT (listed as DNA, chemistry not fully specified) [SluD73] in your reply.
Result block: 2.33%

Query block: Supply measured % of CAG foci positive nuclei (DNA-PKi) of CGAGGGTCGGGGGTGGGGGTCC (guide RNA; chemistry not fully specified) [SluD88] in your reply.
Result block: 2.42%

Query block: Supply measured % of CAG foci positive nuclei (DNA-PKi) of ggggcTCGAAGGGTCCTTGTAG (as printed in the source, key not given here) [SluU63] in your reply.
Result block: 5.49%

Query block: Supply measured % of CAG foci positive nuclei (DNA-PKi) of ATAAATATCCAAACCGCCGAAG (guide RNA; chemistry not fully specified) [SluD63] in your reply.
Result block: 2.95%

* * *

Test system: CUG foci in primary DM1 patient myoblasts
Assay: Dual-cut screening: FISH staining of CUG RNA foci
Type: cell-based, human
Details: sgRNA pair; primary DM1 patient myoblasts; vehicle (DMSO)
Kindly apply the following: condition met if % of CUG foci free nuclei (Vehicle) is less than 60%, condition not met in every other case.

Query block: For SluU63 + SluD34 (guide 1 GGGGCTCGAAGGGTCCTTGTAG; guide 2 CGCGCCAGACGCTCCCCAGAGC; guide RNA; listed as DNA, chemistry not fully specified) , is the recorded % of CUG foci free nuclei (Vehicle) below the cut-off of 60%?
Result block: condition not met

Query block: For SluU21 + SluD34 (guide 1 GCTCGGAGCGGTTGTGAACTGG; guide 2 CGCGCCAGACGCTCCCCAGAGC; guide RNA; listed as DNA, chemistry not fully specified) , is the recorded % of CUG foci free nuclei (Vehicle) below the cut-off of 60%?
Result block: condition met

Query block: For SluU06 + SluD06 (guide 1 TGTCTTCGACTCCGGGGCCCCG; guide 2 CCAGGCTGAGGCCCTGACGTGG; guide RNA; listed as DNA, chemistry not fully specified) , is the recorded % of CUG foci free nuclei (Vehicle) below the cut-off of 60%?
Result block: condition not met

Query block: For SluU62 + SluD56 (guide 1 AGGACCCTTCGAGCCCCGTTCG; guide 2 CCAGCCGGCTCCGCCCGCTTCG; guide RNA; listed as DNA, chemistry not fully specified) , is the recorded % of CUG foci free nuclei (Vehicle) below the cut-off of 60%?
Result block: condition met

Query block: For SluU08 + SluD32 (guide 1 GCCCCGTTGGAAGACTGAGTGC; guide 2 CTTGTGCATGACGCCCTGCTCT; guide RNA; listed as DNA, chemistry not fully specified) , is the recorded % of CUG foci free nuclei (Vehicle) below the cut-off of 60%?
Result block: condition not met

Query block: For SluU64 + SluD73 (guide 1 GGGCTCGAAGGGTCCTTGTAGC; guide 2 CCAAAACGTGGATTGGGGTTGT; guide RNA; listed as DNA, chemistry not fully specified) , is the recorded % of CUG foci free nuclei (Vehicle) below the cut-off of 60%?
Result block: condition not met

Query block: For SluU62 + SluD06 (guide 1 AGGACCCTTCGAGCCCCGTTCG; guide 2 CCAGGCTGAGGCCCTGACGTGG; guide RNA; listed as DNA, chemistry not fully specified) , is the recorded % of CUG foci free nuclei (Vehicle) below the cut-off of 60%?
Result block: condition met

Query block: For SluU64 + SluD48 (guide 1 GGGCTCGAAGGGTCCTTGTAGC; guide 2 GAGAGCAGCGCAAGTGAGGAGG; guide RNA; listed as DNA, chemistry not fully specified) , is the recorded % of CUG foci free nuclei (Vehicle) below the cut-off of 60%?
Result block: condition not met

Query block: For SluU63 + SluD32 (guide 1 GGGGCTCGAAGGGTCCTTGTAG; guide 2 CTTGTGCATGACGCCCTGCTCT; guide RNA; listed as DNA, chemistry not fully specified) , is the recorded % of CUG foci free nuclei (Vehicle) below the cut-off of 60%?
Result block: condition not met

Query block: For SluU62 + SluD83 (guide 1 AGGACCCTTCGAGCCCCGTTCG; guide 2 GTGGGGACAGACAATAAATACC; guide RNA; listed as DNA, chemistry not fully specified) , is the recorded % of CUG foci free nuclei (Vehicle) below the cut-off of 60%?
Result block: condition met
